- System: OVCAR-5 ovarian
- assayNotes: NCI-60 one-dose screen, 48 h (100 = growth as untreated, 0 = no growth, -100 = all killed)
- setupConditions: 10 µM
Compounds without any hit were thinned out: in the full panel of roughly 83,000, 20% have a hit.
readoutKind: growth (%)
# number only, unit % dropped from output

# compound, quantityUnit, measuredResult
rows = [
    ("NS(=O)(=O)Oc1ccc(NC(=O)C2CCCCCC2)cc1", "%", 98.4),
    ("C=CCN(CC=C)C(=O)[C@H](CC)[C@@H]1CC[C@@H](C)[C@@H]([C@H](C)[C@@H](O)[C@@H](C)C(=O)[C@H](CC)C2O[C@]3(C=C[C@@H](O)[C@]4(CC[C@@](C)([C@H]5CC[C@](O)(CC)[C@H](C)O5)O4)O3)[C@H](C)C[C@@H]2C)O1 (some centres undefined)", "%", 31.9),
    ("CN(C)CCOc1cccc(NC2=C(Cl)C(=O)C(Nc3cccc(OCCN(C)C)c3)=C(Cl)C2=O)c1", "%", -53.9),
    ("COc1ccc(C2CC(c3cccs3)=NN2c2ccc(S(N)(=O)=O)cc2)cc1 (centres undefined)", "%", 95.4),
]

State the recorded growth for this entry: CCOC(=O)C1C(C(=O)OCC)C2C(=O)C3C(C(=O)OCC)C(C(=O)OCC)C3C(=O)C12 (centres undefined)
108

State the recorded growth for this entry: `IC(I)I`
94.1

State the recorded growth for this entry: CCN1C(=O)CC(SC2CC(=O)N(CC)C2=O)C1=O (centres undefined)
106

State the recorded growth for this entry: `CS(=O)(=O)c1nccc(-c2c(-c3cccc(O)c3)nc3sccn23)n1`
99.3

State the recorded growth for this entry: Cc1ccc(NCCN(C)CC(C)O)c2c(=O)c3ccc(Cl)cc3sc12 (centres undefined)
77.9
